Study Target: human alpha1 nicotinic acetylcholine (nACh) receptor (Homo sapiens, UniProt P02708)
Sequence (P02708 21-457): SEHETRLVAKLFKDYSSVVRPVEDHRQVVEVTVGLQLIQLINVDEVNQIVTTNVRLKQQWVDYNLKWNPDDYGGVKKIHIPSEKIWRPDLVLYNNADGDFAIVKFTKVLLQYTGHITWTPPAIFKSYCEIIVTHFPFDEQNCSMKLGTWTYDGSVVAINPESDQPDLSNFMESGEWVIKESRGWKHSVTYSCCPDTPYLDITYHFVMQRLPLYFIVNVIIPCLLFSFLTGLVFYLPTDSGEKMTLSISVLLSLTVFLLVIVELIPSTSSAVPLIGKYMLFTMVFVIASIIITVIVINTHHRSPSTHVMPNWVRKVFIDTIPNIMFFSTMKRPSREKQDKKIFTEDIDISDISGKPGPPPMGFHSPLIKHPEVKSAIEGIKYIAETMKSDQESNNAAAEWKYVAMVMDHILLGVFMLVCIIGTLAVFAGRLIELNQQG
Sequence (P11230 24-501 partner): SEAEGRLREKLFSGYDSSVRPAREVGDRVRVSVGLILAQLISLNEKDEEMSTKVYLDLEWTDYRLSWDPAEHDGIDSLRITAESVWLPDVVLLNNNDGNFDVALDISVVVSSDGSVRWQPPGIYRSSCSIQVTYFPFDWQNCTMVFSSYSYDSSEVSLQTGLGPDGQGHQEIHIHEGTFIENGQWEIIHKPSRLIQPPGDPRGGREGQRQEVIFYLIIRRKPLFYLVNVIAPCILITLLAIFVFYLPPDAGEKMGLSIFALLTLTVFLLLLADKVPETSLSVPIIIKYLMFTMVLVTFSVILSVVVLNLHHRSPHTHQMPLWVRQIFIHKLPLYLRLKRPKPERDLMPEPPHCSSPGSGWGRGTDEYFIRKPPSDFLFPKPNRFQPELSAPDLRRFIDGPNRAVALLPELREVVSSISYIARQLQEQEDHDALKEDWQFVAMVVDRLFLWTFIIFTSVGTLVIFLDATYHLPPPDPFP
Sequence (Q07001 22-517 partner): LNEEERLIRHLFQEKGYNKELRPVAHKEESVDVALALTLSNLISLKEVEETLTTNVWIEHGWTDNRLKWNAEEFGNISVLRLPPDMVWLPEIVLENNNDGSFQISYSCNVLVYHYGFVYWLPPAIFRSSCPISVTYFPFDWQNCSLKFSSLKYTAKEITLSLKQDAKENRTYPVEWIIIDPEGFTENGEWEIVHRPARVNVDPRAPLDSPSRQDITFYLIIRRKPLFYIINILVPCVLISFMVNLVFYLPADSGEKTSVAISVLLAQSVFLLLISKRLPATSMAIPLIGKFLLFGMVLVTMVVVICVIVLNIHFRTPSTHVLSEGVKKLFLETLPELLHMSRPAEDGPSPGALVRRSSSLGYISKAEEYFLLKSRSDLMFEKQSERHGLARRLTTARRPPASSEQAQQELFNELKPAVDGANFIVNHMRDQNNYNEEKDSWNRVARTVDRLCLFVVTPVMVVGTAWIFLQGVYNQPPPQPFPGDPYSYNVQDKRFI
Assay Procedure: Nicotinic acetylcholine receptor antagonism assay, IONFlux automated patch clamp (Example 203)
Type: cell-based
Experimental Context: maximum percentage antagonism at maximum concentration tested 10 μM; read-out: Maximum Response
Metric Name: Emax at 10 µM (%)
Just the number please, in %, no unit attached.

>>> value("CN1C(=O)C[C@H](C(=O)NCCOCCOCCOCCOCCOCCC(=O)N[C@@H]2C[C@H](NC(C)(C)C)CC[C@@H]2N2CC[C@H](Nc3ncnc4ccc(C(F)(F)F)cc34)C2=O)[C@H]1c1cccnc1")
7.3
>>> value("CC(C)N(C)[C@@H]1CC[C@H](N2CC[C@H](Nc3ncnc4ccc(C(F)(F)F)cc34)C2=O)[C@H](NC(=O)CCOCCOCCOCCOCCOCCOCCNC(=O)[C@H]2CC(=O)N(C)[C@@H]2c2cccnc2)C1")
20.1
>>> value("CC(C)N(C)[C@@H]1CC[C@H](N2CC[C@H](Nc3ncnc4ccc(C(F)(F)F)cc34)C2=O)[C@H](NC(=O)COCCOCCNC(=O)CCOCCOCCNC(=O)[C@H]2CC(=O)N(C)[C@@H]2c2cccnc2)C1")
19.6
>>> value("CC(C)N(C)[C@@H]1CC[C@H](N2CC[C@H](Nc3ncnc4ccc(C(F)(F)F)cc34)C2=O)[C@H](NC(=O)[C@H]2CC[C@@H](C3CCN(C(=O)CCOCCOCCNC(=O)[C@H]4CC(=O)N(C)[C@@H]4c4cccnc4)CC3)CC2)C1")
32.7

Shifting focus to the molecule that follows.
Provide the documented Emax at 10 µM with human alpha1 nicotinic acetylcholine (nACh) receptor (Homo sapiens, UniProt P02708) as the system for `CC(C)N(C)[C@@H]1CC[C@H](N2CC[C@H](Nc3ncnc4ccc(C(F)(F)F)cc34)C2=O)[C@H](NC(=O)c2ccc(N3CCC(C(=O)NCCOCCOCCNC(=O)[C@H]4CC(=O)N(C)[C@@H]4c4cccnc4)CC3)cc2)C1` 16.8
